Tested on: Cell-based STAT3 reporter inhibition, counterscreen
Experiment: STAT3 inhibitors in reporter cells, dose response, counter-screen for STAT1 inhibitor project (AID 1409)
Active and inactive are the calls of the source. The rule behind the calls is not given here.
Classes used: active, inactive

Molecule	Category Label
CCOC(=O)N1CCN(C(=O)/C=C/c2c(C)nn(-c3ccc(F)cc3)c2Cl)CC1	inactive
Cc1ccc(-c2csc3ncnc(Sc4nnc(CN5CCCCCC5=O)o4)c23)cc1	inactive
CS(=O)(=O)c1nc(-c2ccc(F)cc2)cc(C(F)(F)F)n1	inactive
CS(=O)(=O)c1nc(-c2ccccc2)cc(C(F)(F)F)n1	inactive
O=C(c1ccc2c(c1)N(Cc1ccccc1)C(=O)c1ccccc1S2)N1CCCC1	inactive
COc1ccc(CNc2ncnc3cc(Cl)ccc23)cc1OC	inactive
Cc1cc(=O)n(C(NC(=O)c2ccccc2)C(=O)c2ccccc2)cn1 (stereo not given)	inactive
O=c1cc(CSc2nc3ccccc3c(=O)[nH]2)c2ccc(O)cc2o1	inactive
Cn1c(C(=O)N2CCN(c3ccc([N+](=O)[O-])cc3)CC2)cc2c(=O)[nH]c3ccccc3c21	inactive
Cc1ccccc1-c1noc(N)c1C#N	inactive
CN1CCN(Cc2nc3ccccc3c(=O)n2Cc2nc(-c3ccccc3F)cs2)CC1	inactive
CS(=O)(=O)c1nc(-c2ccco2)cc(C(F)(F)F)n1	inactive
CCOC(=O)C(=CNc1cc(C)nn1-c1ccccc1)C(=O)OCC	inactive
COc1ccccc1-c1cc(C(F)(F)F)nc(S(=O)(=O)CCCC(=O)N2CCOCC2)n1	inactive
Cn1nnnc1Sc1ncnc2scc(-c3ccc(F)cc3)c12	inactive
Cc1ccc(S(=O)(=O)N2CCN(C(C(=O)Nc3ccc(F)cc3)c3ccccc3)CC2)cc1 (stereo not given)	inactive
CCOC(=O)N1CCN(C(=O)c2ccc(-n3c(=S)[nH]c4ccccc4c3=O)cc2)CC1	inactive
O=C(CSc1nc2ccccc2c(=O)[nH]1)c1ccc(O)cc1O	inactive
Cc1cccc(/C=C(\c2nc3ccccc3[nH]2)S(=O)(=O)c2ccccc2)c1	inactive
Cc1ccccc1NC(=O)C(=Cc1ccc(C(=O)O)cc1)C(=O)Nc1ccccc1C	inactive
COCC(C)NC(=O)CCS(=O)(=O)c1nc(-c2ccc(OC)cc2)cc(C(F)(F)F)n1 (stereo not given)	inactive
COc1ccc(-c2cc(C(F)(F)F)nc(S(=O)(=O)CCCC(=O)Nc3cc(C)on3)n2)cc1OC	inactive
CCOC(=O)N1CCN(C(=O)c2ccc(CSc3ccc(Cl)cc3)cc2)CC1	inactive
COc1ccccc1-c1cc(C(F)(F)F)nc(S(C)(=O)=O)n1	inactive
CCOc1cc(-c2noc(N)c2C#N)cc(OCC)c1OCC	inactive
Cc1cc(NC(=O)CCCS(=O)(=O)c2nc(-c3cccs3)cc(C(F)(F)F)n2)no1	inactive
CC1(C)Cc2c(ccc3ccccc23)C2=C(C(=O)N3CCCC3)C(=O)C(=O)N21	inactive
COc1ccc(CCNc2ncnc3cc(OC)c(OC)cc23)cc1OC	inactive
CCN(CC)S(=O)(=O)c1ccc(N2CCOCC2)c(NC(=O)c2cc(-c3ccccn3)nc3ccccc23)c1	active
CCn1c(O)c(/C=N/NC(=O)c2ccncc2)c(=O)n(CC)c1=S	inactive
